# SYSTEM_UNDER_TEST: THRβ (Homo sapiens, UniProt P10828)
# Sequence (P10828 217-461 limits assumed): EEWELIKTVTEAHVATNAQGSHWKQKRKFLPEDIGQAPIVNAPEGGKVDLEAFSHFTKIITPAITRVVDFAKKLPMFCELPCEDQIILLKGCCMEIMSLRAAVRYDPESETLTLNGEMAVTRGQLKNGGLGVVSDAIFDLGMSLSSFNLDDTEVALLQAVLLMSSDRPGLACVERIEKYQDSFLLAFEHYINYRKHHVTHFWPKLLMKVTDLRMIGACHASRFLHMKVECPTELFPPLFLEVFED
# TEST_DETAILS: HTRF test of agonist-induced SRC3-2 coactivator peptide recruitment to THRβ-LBD
# Format: biochemical
# CONDITIONS_USED: HTRF, starting concentration 20 µM, 3-fold dilution, 10 concentrations, duplicate; read-out: THRβ (EC50)

{"columns": ["COMPOUND", "EC50 [nM]"],
 "data": [
  ["CC(C)c1cc(Oc2c(Cl)cc(-n3nc(CF)c(=O)[nH]c3=O)cc2Cl)n[nH]c1=O [Compound X1, reference compound]", 22],
  ["[2H]C([2H])([2H])C(c1c(C)c(Oc2c(Cl)cc(-n3nc(CF)c(=O)[nH]c3=O)cc2Cl)n[nH]c1=O)C([2H])([2H])[2H]", 6.5],
  ["Cc1c(Oc2c(Cl)cc(-n3nc(CF)c(=O)[nH]c3=O)cc2Cl)n[nH]c(=O)c1C(C)C", 11],
  ["[2H]C([2H])([2H])C(c1cc(Oc2c(Cl)cc(-n3nc(CF)c(=O)[nH]c3=O)cc2Cl)n[nH]c1=O)C([2H])([2H])[2H]", 20]
]}

The origin of these recorded values is patent EP4763841A1.
